- System: Human Embryo Kidney (HEK) 293 cells
- Assay notes: Hypothermia/rewarming injury of HEK cells, trypan blue viability count
- Type: cell-based
- Measurement setup: Homo sapiens, HEK293, 24 h, 10 nM; 24 h at 4° C., 24 h rewarming; read-out: % cells that survived
Please provide measured viability at 0.01 µM for the entries that follow.
Expressed in %, but write only the number.

Q) Look up and state reported viability at 0.01 µM for Cc1c(C)c2c(c(C)c1O)CCC(C)(C(=O)N1CCN(CC(=O)O)CC1)O2 (racemic)
A) 99.6

Q) Look up and state reported viability at 0.01 µM for Cc1c(C)c2c(c(C)c1O)CCC(C)(C(=O)N1CCC[C@H]1C(=O)O)O2 (mixture of isomers)
A) 30.6

Q) Look up and state reported viability at 0.01 µM for CCOC(=O)CN1CCN(C(=O)C2(C)CCc3c(C)c(O)c(C)c(C)c3O2)CC1 (stereo not drawn)
A) 8.7

Q) Look up and state reported viability at 0.01 µM for Cc1c(C)c2c(c(C)c1O)CCC(C)(C(=O)N1CCN(CCOCCO)CC1)O2 (stereo not drawn)
A) 5.15

Q) Look up and state reported viability at 0.01 µM for `Cc1c(C)c2c(c(C)c1O)CC[C@](C)(C(=O)N1CCN(CC(=O)O)CC1)O2`
A) 0

Q) Look up and state reported viability at 0.01 µM for COC(=O)c1ccc(NC(=O)C2(C)CCc3c(C)c(O)c(C)c(C)c3O2)cc1 (stereo not drawn)
A) 4.42

Q) Look up and state reported viability at 0.01 µM for Cc1c2c(c(C(C)C)c(O)c1C(C)C)CCC(C)(C(=O)O)O2 (stereo not drawn)
A) 13.7

Q) Look up and state reported viability at 0.01 µM for CNCCNC(=O)C1(C)CCc2c(C)c(O)c(C)c(C)c2O1 (stereo not drawn)
A) 77.8

Q) Look up and state reported viability at 0.01 µM for CCCCNCC1(C)CCc2c(C)c(O)c(C)c(C)c2O1 (stereo not drawn)
A) 0.72

====

- Test system: Human Embryo Kidney (HEK) 293 cells
- Assay notes: Hypothermia/rewarming injury of HEK cells, trypan blue viability count
- Assay type: cell-based
- Measurement setup: mean over the tested concentrations
Please provide measured % cells that survived, Mean for the entries that follow.
Expressed in %, but write only the number.

Q) Write % cells that survived, Mean of Cc1c(C)c2c(c(C)c1O)CCC(C)(C(=O)NO)O2 (centres unmarked) ; system used: Human Embryo Kidney (HEK) 293 cells
A) 58

Q) Write % cells that survived, Mean of Cc1c(C)c2c(c(C)c1O)CCC(C)(C(=O)N1CCN(CC(=O)O)CC1)O2 (racemic) ; system used: Human Embryo Kidney (HEK) 293 cells
A) 99

Q) Write % cells that survived, Mean of Cc1c(C)c2c(c(C)c1O)CCC(C)(C(=O)Nc1ccc(F)cc1)O2 (centres unmarked) ; system used: Human Embryo Kidney (HEK) 293 cells
A) 57

Q) Write % cells that survived, Mean of Cc1c(C)c2c(c(C)c1O)CCC(C)(C(=O)N[C@@H](C(N)=O)c1ccccc1)O2 (some centres unmarked) ; system used: Human Embryo Kidney (HEK) 293 cells
A) 90

Q) Write % cells that survived, Mean of Cc1c(C)c2c(c(C)c1O)CCC(C)(C(N)=O)O2 (centres unmarked) ; system used: Human Embryo Kidney (HEK) 293 cells
A) 76

Q) Write % cells that survived, Mean of Cc1c(C)c2c(c(C)c1O)CCC(C)(CN[C@H](CO)c1ccccc1)O2 (some centres unmarked) ; system used: Human Embryo Kidney (HEK) 293 cells
A) 46

Q) Write % cells that survived, Mean of CCCCNCC1(C)CCc2c(C)c(O)c(C)c(C)c2O1 (centres unmarked) ; system used: Human Embryo Kidney (HEK) 293 cells
A) 60

Q) Write % cells that survived, Mean of Cc1c(C)c2c(c(C)c1O)CCC(C)(C(=O)N1CCC[C@H]1C(=O)O)O2 (mixture of isomers) [SUL - 143] ; system used: Human Embryo Kidney (HEK) 293 cells
A) 54

Q) Write % cells that survived, Mean of Cc1c(C)c2c(c(C)c1O)CCC(C)(C(=O)N[C@H](C)CO)O2 (some centres unmarked) ; system used: Human Embryo Kidney (HEK) 293 cells
A) 73

Q) Write % cells that survived, Mean of Cc1c2c(c(C(C)C)c(O)c1C(C)C)CCC(C)(C(=O)NO)O2 (centres unmarked) ; system used: Human Embryo Kidney (HEK) 293 cells
A) 32

Q) Write % cells that survived, Mean of `Cc1c(C)c2c(c(C)c1O)CC[C@](C)(C(=O)N1CCN(CC(=O)O)CC1)O2` ; system used: Human Embryo Kidney (HEK) 293 cells
A) 77

Q) Write % cells that survived, Mean of Cc1c(C)c2c(c(C)c1O)CCC(C)(C(=O)NCCC#N)O2 (centres unmarked) ; system used: Human Embryo Kidney (HEK) 293 cells
A) 70

Q) Write % cells that survived, Mean of CNCCNC(=O)C1(C)CCc2c(C)c(O)c(C)c(C)c2O1 (centres unmarked) ; system used: Human Embryo Kidney (HEK) 293 cells
A) 57

Q) Write % cells that survived, Mean of Cc1c(C)c2c(c(C)c1O)CCC(C)(C(=O)NCCBr)O2 (centres unmarked) ; system used: Human Embryo Kidney (HEK) 293 cells
A) 71

Q) Write % cells that survived, Mean of Cc1c(C)c2c(c(C)c1O)CCC(C)(C(=O)N1CCC[C@H]1C(=O)O)O2 (single isomer, unassigned) [SUL - 145] ; system used: Human Embryo Kidney (HEK) 293 cells
A) 40

Q) Write % cells that survived, Mean of Cc1c2c(c(C(C)C)c(O)c1C(C)C)CCC(C)(C(=O)N1CCNCC1)O2 (centres unmarked) ; system used: Human Embryo Kidney (HEK) 293 cells
A) 71

Q) Write % cells that survived, Mean of CCCCN1CCN(C(=O)C2(C)CCc3c(C)c(O)c(C)c(C)c3O2)CC1 (centres unmarked) ; system used: Human Embryo Kidney (HEK) 293 cells
A) 55

Q) Write % cells that survived, Mean of Cc1c(C)c2c(c(C)c1O)CCC(C)(C(=O)N1CCC[C@H]1CO)O2 (some centres unmarked) ; system used: Human Embryo Kidney (HEK) 293 cells
A) 79

Q) Write % cells that survived, Mean of Cc1c(C)c2c(c(C)c1O)CCC(C)(CN1CCC[C@H]1CO)O2 (some centres unmarked) [SUL - 134] ; system used: Human Embryo Kidney (HEK) 293 cells
A) 79

Q) Write % cells that survived, Mean of COC(=O)c1ccc(NC(=O)C2(C)CCc3c(C)c(O)c(C)c(C)c3O2)cc1 (centres unmarked) ; system used: Human Embryo Kidney (HEK) 293 cells
A) 59
